Here, each record is paired with measured MIC data.
Tested on: Pseudomonas aeruginosa
Assay: The compound was tested in vitro for minimum inhibitory concentration against Pseudomonas aeruginosa 8780
Assay type: functional

compound	study-system	result
Nc1nc(/C(=N/OCC(=O)O)C(=O)N[C@@H]2C(=O)N3C(C(=O)O)=C(COC(=O)N4CCN(c5cc6c(cc5F)c(=O)c(C(=O)O)cn6C5CC5)CC4)CS[C@H]23)cs1	Pseudomonas aeruginosa	1 mg/L
N#CCC(=O)N[C@@H]1C(=O)N2C(C(=O)O)=C(COC(=O)N3CCN(c4cc5c(cc4F)c(=O)c(C(=O)O)cn5C4CC4)CC3)CS[C@H]12	Pseudomonas aeruginosa	1 mg/L
CC(=O)OCC1=C(C(=O)O)N2C(=O)[C@@H](NC(=O)COc3ccccc3)[C@H]2SC1	Pseudomonas aeruginosa	> 128 mg/L
NC(=O)CO/N=C(\C(=O)N[C@@H]1C(=O)N2C(C(=O)O)=C(COC(=O)N3CCN(c4cc5c(cc4F)c(=O)c(C(=O)O)cn5C4CC4)CC3)CS[C@H]12)c1csc(N)n1	Pseudomonas aeruginosa	2 mg/L
O=C(O)C1=C(COC(=O)N2CCN(c3cc4c(cc3F)c(=O)c(C(=O)O)cn4C3CC3)CC2)CS[C@@H]2[C@H](NC(=O)C(O)c3ccccc3)C(=O)N12 (stereo partly specified)	Pseudomonas aeruginosa	1 mg/L

Let's switch to this compound now.
IN: Query MIC on Pseudomonas aeruginosa for "CO/N=C(\C(=O)N[C@@H]1C(=O)N2C(C(=O)O)=C(COC(C)=O)CS[C@H]12)c1csc(N)n1"
OUT: 16 mg/L

###

Tested on: Escherichia coli
Experiment: The compound was tested in vitro for minimum inhibitory concentration against Escherichia coli TEM-1
Type: functional
MIC: recorded values
Supply the numeric figure in mg/L, leaving out any unit text.

Sample records with MIC:
compound	MIC (mg/L)
CO/N=C(\C(=O)N[C@@H]1C(=O)N2C(C(=O)O)=C(COC(=O)N3CCN(c4cc5c(cc4F)c(=O)c(C(=O)O)cn5C4CC4)CC3)CS[C@H]12)c1csc(N)n1	0.063
O=C(O)C1=C(COC(=O)N2CCN(c3cc4c(cc3F)c(=O)c(C(=O)O)cn4C3CC3)CC2)CS[C@@H]2[C@H](NC(=O)C(O)c3ccccc3)C(=O)N12 (some centres undefined)	0.031
N#CCC(=O)N[C@@H]1C(=O)N2C(C(=O)O)=C(COC(=O)N3CCN(c4cc5c(cc4F)c(=O)c(C(=O)O)cn5C4CC4)CC3)CS[C@H]12	0.063

IN: Value lookup for MIC; key = "NC(=O)CO/N=C(\C(=O)N[C@@H]1C(=O)N2C(C(=O)O)=C(COC(=O)N3CCN(c4cc5c(cc4F)c(=O)c(C(=O)O)cn5C4CC4)CC3)CS[C@H]12)c1csc(N)n1"
OUT: 0.063

###

Reported MIC values for the following molecules.
Tested on: Streptococcus pyogenes
Assay: The compound was tested in vitro for minimum inhibitory concentration against Streptococcus pyogenes
Format: functional

Study these solved cases before continuing.
molecule	MIC
O=C(O)C1=C(COC(=O)N2CCN(c3cc4c(cc3F)c(=O)c(C(=O)O)cn4C3CC3)CC2)CS[C@@H]2[C@H](NC(=O)C(O)c3ccccc3)C(=O)N12 (stereo partly drawn)	< 0.016 mg/L
CO/N=C(\C(=O)N[C@@H]1C(=O)N2C(C(=O)O)=C(COC(=O)N3CCN(c4cc5c(cc4F)c(=O)c(C(=O)O)cn5C4CC4)CC3)CS[C@H]12)c1csc(N)n1	< 0.016 mg/L

Now for a further molecule.
IN: Using the record for CO/N=C(\C(=O)N[C@@H]1C(=O)N2C(C(=O)O)=C(COC(C)=O)CS[C@H]12)c1csc(N)n1 [CEFOTAXIME] , report its MIC.
OUT: < 0.016 mg/L
